We begin with IC50 values for Apoptosis regulator Bcl-2 (Homo sapiens, UniProt P10415), as collected from the published literature.

The examples below pair each entry with its known result.
{"Structure Smiles": "C[C@@H](c1ccc(Cl)cc1)N(C(=O)/C=C/CN(C)C)c1ccc(O[C@@H]2CC[C@@H](NC(=O)NC3CS(=O)(=O)C3)C2)c(F)c1", "IC50": "> 30 µM"}
{"Structure Smiles": "Cc1cc(OCCCc2c(C(=O)O)n(CCN3CCOCC3)c3c(-c4ccccc4Cn4cc(CCNC(=O)c5ccc(OC(F)(F)F)cc5)c5ccccc54)cccc23)cc(C)c1Cl", "IC50": "> 100 µM"}
{"Structure Smiles": "CCOC(=O)CS(=O)(=O)c1nc(-c2ccc(F)cc2)cc(C(F)(F)F)n1", "IC50": "> 100 µM"}

Exercise: If you can, please state the reported IC50 value of Cc1cc(OCCCc2c(C(=O)O)n(CCN3CCOCC3)c3c(-c4ccccc4Cn4cc(CCNC(=O)c5ccc(Cl)cc5)c5ccccc54)cccc23)cc(C)c1Cl .
Key: > 100 µM

Exercise: Continue with C=CC(=O)N(c1ccc(O[C@@H]2CC[C@@H](NC(=O)N[C@@H]3CCS(=O)(=O)C3)C2)c(F)c1)[C@@H](C)c1ccc(Cl)cc1
Key: > 30 µM

Exercise: Please do the same for C=CC(=O)N(c1ccc(O[C@@H]2CC[C@@H](NC(=O)N[C@@H]3CCS(=O)(=O)C3)C2)c(Cl)c1)[C@@H](C)c1ccc(Cl)cc1 as well.
Key: > 30 µM

Exercise: What would you report for Cc1cc(OCCCc2c(C(=O)O)n(CCN3CCOCC3)c3c(-c4ccccc4Cn4cc(CCNC(=O)c5ccc(F)cc5)c5ccccc54)cccc23)cc(C)c1Cl ?
Key: > 100 µM
